Entries annotated with measured IC50
Target: UniProt Q9Y2I7
Sequence (Q9Y2I7 whole entry): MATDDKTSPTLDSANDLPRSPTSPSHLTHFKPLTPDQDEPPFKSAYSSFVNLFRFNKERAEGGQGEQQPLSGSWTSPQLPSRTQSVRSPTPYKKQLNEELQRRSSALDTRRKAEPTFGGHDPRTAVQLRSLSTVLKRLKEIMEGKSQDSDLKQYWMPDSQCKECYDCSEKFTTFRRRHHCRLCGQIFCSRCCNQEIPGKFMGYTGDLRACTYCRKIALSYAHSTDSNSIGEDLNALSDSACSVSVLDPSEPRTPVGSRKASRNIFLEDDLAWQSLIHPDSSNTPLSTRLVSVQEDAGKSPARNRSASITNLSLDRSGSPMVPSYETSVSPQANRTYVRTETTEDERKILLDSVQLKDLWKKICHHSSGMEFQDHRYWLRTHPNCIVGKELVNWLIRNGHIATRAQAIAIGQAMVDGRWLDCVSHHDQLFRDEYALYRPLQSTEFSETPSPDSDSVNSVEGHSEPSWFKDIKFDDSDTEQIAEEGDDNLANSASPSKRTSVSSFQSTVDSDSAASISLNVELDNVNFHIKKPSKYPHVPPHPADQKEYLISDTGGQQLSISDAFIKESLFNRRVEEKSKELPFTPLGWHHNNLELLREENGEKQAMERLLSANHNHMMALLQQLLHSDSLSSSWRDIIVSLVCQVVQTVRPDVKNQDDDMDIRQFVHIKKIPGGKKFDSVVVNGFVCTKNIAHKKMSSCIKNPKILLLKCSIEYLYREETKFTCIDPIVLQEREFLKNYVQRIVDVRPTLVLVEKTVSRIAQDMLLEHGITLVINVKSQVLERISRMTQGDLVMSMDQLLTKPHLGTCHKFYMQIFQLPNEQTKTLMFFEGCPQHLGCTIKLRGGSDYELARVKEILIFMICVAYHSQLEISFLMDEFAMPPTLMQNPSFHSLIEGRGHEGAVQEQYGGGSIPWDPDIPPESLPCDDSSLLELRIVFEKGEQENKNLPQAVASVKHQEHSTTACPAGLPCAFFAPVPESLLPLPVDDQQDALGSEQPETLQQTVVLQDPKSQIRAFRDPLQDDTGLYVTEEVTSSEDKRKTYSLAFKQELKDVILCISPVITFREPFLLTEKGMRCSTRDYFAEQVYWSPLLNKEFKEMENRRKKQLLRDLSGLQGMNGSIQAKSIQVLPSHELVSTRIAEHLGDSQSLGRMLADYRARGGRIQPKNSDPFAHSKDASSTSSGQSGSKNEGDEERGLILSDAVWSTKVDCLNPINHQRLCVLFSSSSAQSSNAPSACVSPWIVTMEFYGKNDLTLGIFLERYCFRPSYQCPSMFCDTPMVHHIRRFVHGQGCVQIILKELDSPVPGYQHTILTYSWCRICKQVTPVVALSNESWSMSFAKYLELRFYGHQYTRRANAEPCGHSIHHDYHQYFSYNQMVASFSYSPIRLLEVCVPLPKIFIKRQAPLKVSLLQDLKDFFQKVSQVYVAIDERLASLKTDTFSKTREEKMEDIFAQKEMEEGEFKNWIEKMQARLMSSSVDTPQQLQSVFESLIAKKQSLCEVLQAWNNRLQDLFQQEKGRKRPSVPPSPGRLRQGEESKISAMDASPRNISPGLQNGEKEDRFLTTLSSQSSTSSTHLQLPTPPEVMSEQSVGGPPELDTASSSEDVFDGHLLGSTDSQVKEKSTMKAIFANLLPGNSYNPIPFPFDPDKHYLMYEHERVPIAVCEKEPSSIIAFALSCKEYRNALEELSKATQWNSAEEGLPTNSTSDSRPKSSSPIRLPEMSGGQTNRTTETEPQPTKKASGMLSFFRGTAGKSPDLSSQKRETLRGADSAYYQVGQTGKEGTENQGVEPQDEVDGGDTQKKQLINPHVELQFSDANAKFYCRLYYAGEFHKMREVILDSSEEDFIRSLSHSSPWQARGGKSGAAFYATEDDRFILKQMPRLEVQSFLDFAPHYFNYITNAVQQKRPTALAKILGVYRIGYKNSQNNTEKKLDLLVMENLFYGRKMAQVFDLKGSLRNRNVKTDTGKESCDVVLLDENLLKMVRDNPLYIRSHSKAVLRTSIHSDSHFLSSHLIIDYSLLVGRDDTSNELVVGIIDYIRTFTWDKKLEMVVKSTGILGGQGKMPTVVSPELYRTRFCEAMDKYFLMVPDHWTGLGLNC
Experiment: PIKFYVE assay (luciferase ADP-Glo kinase assay, Promega)
Assay type: biochemical
Conditions: Table 2

Study these solved cases before continuing.
Cc1cccc(-c2ccn(-c3cc(N4CCOCC4)nc(NCCc4ccccn4)n3)n2)c1: 5 to 100 nM
Cn1cc(CCOc2nc(N3CCOCC3)cc(-n3ccc(OCc4ccccc4)n3)n2)cn1: < 5 nM
Cn1cc(C(O)CCc2nc(N3CCOCC3)cc(-n3ccc(-c4ccccc4)n3)n2)cn1 (stereo not shown): < 5 nM
COC(CC#N)c1nc(N2CCOCC2)cc(-n2ccc(-c3cccc(C)c3)n2)n1 (stereo not shown): < 5 nM
Cc1cccc(-c2ccn(-c3cc(N4CCOCC4)nc(CCc4ncccn4)n3)n2)c1: < 5 nM
OCC(O)COc1nc(N2CCOCC2)cc(-n2ncc3ccccc32)n1 (stereo not shown): 101 to 1000 nM

QUERY: What measured IC50 goes with COCc1cc(-c2ccccc2)n(-c2cc(N3CCOCC3)nc(OCCc3cnn(C)c3)n2)n1 ?
RESULT: 5 to 100 nM

QUERY: What measured IC50 goes with Fc1ccc(-c2cnn(-c3cc(N4CC[C@H]5OCC[C@H]54)nc(OCCc4ccccn4)n3)c2)cc1 ?
RESULT: 1000 to 10000 nM

QUERY: What measured IC50 goes with Cc1cccc(-c2ccn(-c3cc(N4CCOCC4)ncn3)n2)c1 ?
RESULT: 101 to 1000 nM

QUERY: What measured IC50 goes with Cc1cccc(-c2cc(CN(C)C)n(-c3cc(N4CCOCC4)nc(OCCc4cnn(C)c4)n3)n2)c1 ?
RESULT: < 5 nM

QUERY: What measured IC50 goes with CC(=O)NCCOc1nc(N2CCOCC2)cc(-n2ccc(-c3cccc(C)c3)n2)n1 ?
RESULT: < 5 nM

QUERY: What measured IC50 goes with OCc1nc(N2CCOCC2)cc(-n2ccc(-c3ccccc3)n2)n1 ?
RESULT: 5 to 100 nM

QUERY: What measured IC50 goes with OCC(O)COc1nc(N2CCOCC2)cc(-n2cc3ccccc3n2)n1 (stereo not shown) ?
RESULT: 101 to 1000 nM
